Ref: PubChem BioAssay AID1918952

Known pIC50 of a selection of molecules
# System: LG0703-F948-PDC complex spheroid viability;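 further: spheroids exposed to agents for seven days before readout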
# assay-info: Anticancer human tumor LG0703-F948-PDC patient-derived lung adenocarcinoma cell line growth inhibition
# condition-summary: curve of first compound; second compound 0.1 µM
pIC50: −log10 of the molar value.
measure: pIC50

INSERT INTO results (molecule, censoring_sign, recorded_value) VALUES
  ('CC[C@@]1(O)C(=O)OCc2c1cc1n(c2=O)Cc2cc3c(CN(C)C)c(O)ccc3nc2-1 + NC1CCC(NC2CC2c2ccccc2)CC1', '<', 7.00),
  ('CC(C)CC(NC(=O)C(Cc1ccccc1)NC(=O)c1cnccn1)B(O)O (stereo not given) + NC1CCC(NC2CC2c2ccccc2)CC1', '>', 9.50),
  ('Nc1ccn(C2OC(CO)C(O)C2(F)F)c(=O)n1 (stereo not given) + NC1CC1c1ccc(-c2cccc(O)c2)cc1', '=', 7.90),
  ('CC(C)CC(NC(=O)CNC(=O)c1cc(Cl)ccc1Cl)B1OC(=O)CC(CC(=O)O)(C(=O)O)O1 (stereo not given) + NC1CC1c1ccc(-c2cccc(O)c2)cc1', '=', 8.42),
  ('CCN(c1cc(-c2ccc(CN3CCOCC3)cc2)cc(C(=O)NCc2c(C)cc(C)[nH]c2=O)c1C)C1CCOCC1 + NC1CCC(NC2CC2c2ccccc2)CC1', '<', 5.52),
  ('CC1COCCN1c1cc(-c2ccnn2C)c2ccnc(-c3ccn[nH]3)c2n1 (stereo not given) + NC1CC1c1ccc(-c2cccc(O)c2)cc1', '=', 7.43),
  ('O=C(C=Cn1cnc(-c2cc(C(F)(F)F)cc(C(F)(F)F)c2)n1)NNc1cnccn1 + NC1CCC(NC2CC2c2ccccc2)CC1', '>', 8.50),
  ('CCc1c2c(nc3ccc(O)cc13)-c1cc3c(c(=O)n1C2)COC(=O)[C@]3(O)CC + NC1CCC(NC2CC2c2ccccc2)CC1', '=', 8.88),
  ('CC(C)c1c(-c2ccccc2)nc2c(C#N)c[nH]n2c1=O + NC1CCC(NC2CC2c2ccccc2)CC1', '<', 5.00),
  ('CC(C)CC(NC(=O)C(Cc1ccccc1)NC(=O)c1cnccn1)B(O)O (stereo not given) + NC1CC1c1ccc(-c2cccc(O)c2)cc1', '>', 9.50),
  ('O=C(c1cc(Cc2n[nH]c(=O)c3ccccc23)ccc1F)N1CCN(C(=O)C2CC2)CC1 + NC1CCC(NC2CC2c2ccccc2)CC1', '<', 5.00),
  ('CC[C@@]1(O)C(=O)OCc2c1cc1n(c2=O)Cc2cc3c(CN(C)C)c(O)ccc3nc2-1 + NC1CC1c1ccc(-c2cccc(O)c2)cc1', '<', 7.00),
  ('O=C(C=Cn1cnc(-c2cc(C(F)(F)F)cc(C(F)(F)F)c2)n1)NNc1cnccn1 + NC1CC1c1ccc(-c2cccc(O)c2)cc1', '=', 7.92),
  ('Nc1ncn(C2CC(O)C(CO)O2)c(=O)n1 (stereo not given) + NC1CC1c1ccc(-c2cccc(O)c2)cc1', '<', 6.00),
  ('NS(=O)(=O)OCC1CC(n2ccc3c(NC4CCc5ccccc54)ncnc32)CC1O (stereo not given) + NC1CC1c1ccc(-c2cccc(O)c2)cc1', '=', 6.17);
